FYI, the data here is from ChEMBL document CHEMBL5244279.

Biological target: Replicase polyprotein 1ab (Severe acute respiratory syndrome coronavirus 2)
Test: Inhibition of SARS CoV-2 Main protease incubated for 10 min by FRET assay
Known IC50 of a selection of compounds
Assay Endpoint: IC50 (nM)

INSERT INTO assay_data (compound, study_target, assay_endpoint, test_result) VALUES
  ('COc1ccc(OC(C)C(=O)N2C[C@@H]3CCC[C@@H]3[C@H]2C(=O)N[C@H](C=O)C[C@@H]2CCNC2=O)cc1 (some centres not stated)', 'Replicase polyprotein 1ab (Severe acute respiratory syndrome coronavirus 2)', 'IC50', 69.1),
  ('O=C[C@H](C[C@@H]1CCNC1=O)NC(=O)[C@@H]1[C@H]2CCC[C@H]2CN1C(=O)COc1ccc2c(c1)OCCO2', 'Replicase polyprotein 1ab (Severe acute respiratory syndrome coronavirus 2)', 'IC50', 93.5),
  ('O=C[C@H](C[C@@H]1CCNC1=O)NC(=O)[C@@H]1[C@H]2CCC[C@H]2CN1C(=O)c1cccnc1', 'Replicase polyprotein 1ab (Severe acute respiratory syndrome coronavirus 2)', 'IC50', 748),
  ('COc1ccc(/C=C/C(=O)N2C[C@@H]3CCC[C@@H]3[C@H]2C(=O)N[C@H](C=O)C[C@@H]2CCNC2=O)c(OC)c1', 'Replicase polyprotein 1ab (Severe acute respiratory syndrome coronavirus 2)', 'IC50', 196),
  ('CN(C)c1ccc(/C=C/C(=O)N2C[C@@H]3CCC[C@@H]3[C@H]2C(=O)N[C@H](C=O)C[C@@H]2CCNC2=O)cc1', 'Replicase polyprotein 1ab (Severe acute respiratory syndrome coronavirus 2)', 'IC50', 375),
  ('O=C[C@H](C[C@@H]1CCNC1=O)NC(=O)[C@@H]1[C@H]2CCC[C@H]2CN1C(=O)c1cc2ccccn2n1', 'Replicase polyprotein 1ab (Severe acute respiratory syndrome coronavirus 2)', 'IC50', 299),
  ('CC1(C)[C@@H]2[C@@H](C(=O)N[C@H](C=O)C[C@@H]3CCNC3=O)N(C(=O)COc3ccc(Cl)cc3Cl)C[C@@H]21', 'Replicase polyprotein 1ab (Severe acute respiratory syndrome coronavirus 2)', 'IC50', 13),
  ('O=C[C@H](C[C@@H]1CCNC1=O)NC(=O)[C@@H]1[C@H]2CCC[C@H]2CN1C(=O)COc1ccc(Cl)cc1F', 'Replicase polyprotein 1ab (Severe acute respiratory syndrome coronavirus 2)', 'IC50', 34.7),
  ('CC1(C)[C@@H]2[C@@H](C(=O)N[C@H](C=O)C[C@@H]3CCNC3=O)N(C(=O)COc3ccc(Cl)cc3)C[C@@H]21', 'Replicase polyprotein 1ab (Severe acute respiratory syndrome coronavirus 2)', 'IC50', 19),
  ('CC1(C)[C@@H]2[C@@H](C(=O)N[C@H](C=O)C[C@@H]3CCNC3=O)N(C(=O)COc3cc(F)cc(F)c3)C[C@@H]21', 'Replicase polyprotein 1ab (Severe acute respiratory syndrome coronavirus 2)', 'IC50', 18.5),
  ('O=C[C@H](C[C@@H]1CCNC1=O)NC(=O)[C@@H]1[C@H]2CCC[C@H]2CN1C(=O)COc1ccc(Cl)c(Cl)c1', 'Replicase polyprotein 1ab (Severe acute respiratory syndrome coronavirus 2)', 'IC50', 30),
  ('CC1(C)[C@@H]2[C@@H](C(=O)N[C@H](C=O)C[C@@H]3CCNC3=O)N(C(=O)CCc3cccc(F)c3)C[C@@H]21', 'Replicase polyprotein 1ab (Severe acute respiratory syndrome coronavirus 2)', 'IC50', 16.5),
  ('O=C[C@H](C[C@@H]1CCNC1=O)NC(=O)[C@@H]1[C@H]2CCC[C@H]2CN1C(=O)/C=C/c1ccccc1', 'Replicase polyprotein 1ab (Severe acute respiratory syndrome coronavirus 2)', 'IC50', 526),
  ('Cc1cc(Cl)ccc1OCC(=O)N1C[C@@H]2CCC[C@@H]2[C@H]1C(=O)N[C@H](C=O)C[C@@H]1CCNC1=O', 'Replicase polyprotein 1ab (Severe acute respiratory syndrome coronavirus 2)', 'IC50', 19.7),
  ('CN(C)c1ccc(CCC(=O)N2C[C@@H]3CCC[C@@H]3[C@H]2C(=O)N[C@H](C=O)C[C@@H]2CCNC2=O)cc1', 'Replicase polyprotein 1ab (Severe acute respiratory syndrome coronavirus 2)', 'IC50', 378),
  ('O=C[C@H](C[C@@H]1CCNC1=O)NC(=O)[C@@H]1[C@H]2CCC[C@H]2CN1C(=O)c1cc2ccccc2[nH]1', 'Replicase polyprotein 1ab (Severe acute respiratory syndrome coronavirus 2)', 'IC50', 153),
  ('CC1(C)[C@@H]2[C@@H](C(=O)N[C@H](C=O)C[C@@H]3CCNC3=O)N(C(=O)COc3ccc(F)c(F)c3)C[C@@H]21', 'Replicase polyprotein 1ab (Severe acute respiratory syndrome coronavirus 2)', 'IC50', 13.2);
